Recorded measurements of half-life, one per entry
test: Half life in human liver microsomes; type: ADME, Microsome

# mol.smiles, half-life
measured = [
    ("Nc1noc2ccc(-n3nc(C(F)(F)F)c4c3C(=O)N(c3ccc(-c5ccccc5CN5CC[C@@H](O)C5)cc3)CC4)cc12", "42 min"),
    ("CN(C)Cc1nccn1-c1ccc(NC(=O)c2cc(C(F)(F)F)nn2-c2ccc3onc(N)c3c2)c(F)c1", "38 min"),
]

**Query** Return reported half-life. Input molecule: CNCc1ccccc1-c1ccc(N2CCc3c(C(N)=O)nn(-c4ccc(OC)cc4)c3C2=O)cc1
**Result** > 100 min

---

target: Coagulation factor X (Homo sapiens, UniProt P00742)
Sequence (P00742 41-179 limits assumed): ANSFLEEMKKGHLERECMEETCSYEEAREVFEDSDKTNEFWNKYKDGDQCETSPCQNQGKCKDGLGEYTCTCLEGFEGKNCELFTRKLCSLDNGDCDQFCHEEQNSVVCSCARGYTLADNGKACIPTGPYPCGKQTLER
Sequence (P00742 235-488 limits assumed): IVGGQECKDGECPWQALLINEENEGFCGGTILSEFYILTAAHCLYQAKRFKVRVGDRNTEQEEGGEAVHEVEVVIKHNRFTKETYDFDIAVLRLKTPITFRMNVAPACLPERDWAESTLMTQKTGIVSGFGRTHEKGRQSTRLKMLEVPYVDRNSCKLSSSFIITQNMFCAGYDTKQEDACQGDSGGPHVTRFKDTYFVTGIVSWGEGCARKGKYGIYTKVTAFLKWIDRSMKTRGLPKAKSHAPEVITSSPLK
measured.parameter: log10 of Ki (log10 of the value in nM)
Hello, just confirming the data are log10 of Ki with units of nM.

Worked examples follow.
# mol.smiles, measured.parameter, measured.value
measured = [
    ("COc1ccc(-n2nc(NC(=O)OC(C)(C)C)c3c2C(=O)N(c2ccc(-c4ccccc4CN4CC[C@@H](O)C4)cc2)CC3)cc1", "log10 of Ki", 0.98),
    ("COc1ccc(-n2nc(C(F)(F)F)c3c2C(=O)N(c2ccc(N(C)C)cc2)CC3)cc1", "log10 of Ki", 0.78),
    ("COc1ccc(-n2nc(C(N)=O)c3c2C(=O)N(c2ccc(-c4ccccc4CN4CC[C@@H](O)C4)cc2)CC3)cc1", "log10 of Ki", -1.15),
    ("CNC(=O)c1nn(-c2ccc(OC)cc2)c2c1CCN(c1ccc(-c3ccccc3CN3CC[C@@H](O)C3)cc1)C2=O", "log10 of Ki", 0.68),
    ("CNc1ccc(N2CCc3c(C(F)(F)F)nn(-c4ccc(OC)cc4)c3C2=O)cc1", "log10 of Ki", 2.79),
    ("COc1ccc(-n2nc(C(N)=O)c3c2C(=O)N(c2ccc(-c4ccccc4CN(CCO)CCO)cc2)CC3)cc1", "log10 of Ki", -0.44),
]

**Query** Provide the reported log10 of Ki (system: Coagulation factor X (Homo sapiens, UniProt P00742)) for COc1ccc(-n2nc(C(N)=O)c3c2C(=O)N(c2ccc(-c4ccccc4CN4CCC(O)CC4)cc2)CC3)cc1
**Result** -0.54

**Query** Provide the reported log10 of Ki (system: Coagulation factor X (Homo sapiens, UniProt P00742)) for CCN(CC)Cc1ccccc1-c1ccc(N2CCc3c(C(N)=O)nn(-c4ccc(OC)cc4)c3C2=O)cc1
**Result** -1.10

**Query** Provide the reported log10 of Ki (system: Coagulation factor X (Homo sapiens, UniProt P00742)) for CNCc1ccccc1-c1ccc(N2CCc3c(C(N)=O)nn(-c4ccc(OC)cc4)c3C2=O)cc1
**Result** -0.85

---

Recorded measurements of bioavailability, one per entry
test: Oral bioavailability in dog at 0.2 mg/kg, po; assay type: ADME, organism-based, Canis lupus familiaris; conditions: in vivo

Worked examples follow.
# compound, measured.parameter, measured.value
rows = [
    ("COc1ccc(-n2nc(C(N)=O)c3c2C(=O)N(c2ccc(-c4ccccc4CN4CCC(O)CC4)cc2)CC3)cc1", "bioavailability", "55%"),
    ("COc1ccc(-n2nc(C(N)=O)c3c2C(=O)N(c2ccc(-c4ccccc4CN4CCCC4)cc2)CC3)cc1", "bioavailability", "53%"),
    ("COc1ccc(-n2nc(C(N)=O)c3c2C(=O)N(c2ccc(N4CCCCC4=O)cc2)CC3)cc1 [APIXABAN]", "bioavailability", "58%"),
    ("COc1ccc(-n2nc(C(N)=O)c3c2C(=O)N(c2ccc(-c4ccccc4CN(CCO)CCO)cc2)CC3)cc1", "bioavailability", "15%"),
]

**Query** Return reported bioavailability. Input compound: COc1ccc(-n2nc(Cn3ccnn3)c3c2C(=O)N(c2ccc(-c4ccccc4CN4CC[C@@H](O)C4)cc2)CC3)cc1
**Result** 24%

**Query** Return reported bioavailability. Input compound: COc1ccc(-n2nc(Cn3cnnn3)c3c2C(=O)N(c2ccc(-c4ccccc4CN4CC[C@@H](O)C4)cc2)CC3)cc1
**Result** 7%
